What relative viability was measured for each of the following?
system: HARA; assay: relative viability (nuclei count vs DMSO), 5 days (fraction); higher = more cells survive; settings: first compound 0.02 µM
Numbers only.

Some solved cases for reference:
Req: What value of measured relative viability is listed for CC(=O)O[C@@]12CO[C@@H]1C[C@H](O)[C@@]1(C)C(=O)[C@H](O)C3=C(C)[C@@H](OC(=O)[C@H](O)[C@@H](NC(=O)OC(C)(C)C)c4ccccc4)C[C@@](O)([C@@H](OC(=O)c4ccccc4)[C@H]21)C3(C)C [Docetaxel] + Nc1ncn([C@H]2C[C@H](O)[C@@H](CO)O2)c(=O)n1 [Decitabine] (partner 2 µM) ?
Resp: 0.111

Req: What value of measured relative viability is listed for CC(=O)O[C@@]12CO[C@@H]1C[C@H](O)[C@@]1(C)C(=O)[C@H](O)C3=C(C)[C@@H](OC(=O)[C@H](O)[C@@H](NC(=O)OC(C)(C)C)c4ccccc4)C[C@@](O)([C@@H](OC(=O)c4ccccc4)[C@H]21)C3(C)C [Docetaxel] + O=C(CCCCCCC(=O)Nc1ccccc1)NO [Vorinostat] (partner 1 µM) ?
Resp: 0.0839

Now let's try a different one.
Req: What value of measured relative viability is listed for CC(=O)O[C@@]12CO[C@@H]1C[C@H](O)[C@@]1(C)C(=O)[C@H](O)C3=C(C)[C@@H](OC(=O)[C@H](O)[C@@H](NC(=O)OC(C)(C)C)c4ccccc4)C[C@@](O)([C@@H](OC(=O)c4ccccc4)[C@H]21)C3(C)C [Docetaxel] + Cc1cc(Nc2cc(N3CCN(C)CC3)nc(Sc3ccc(NC(=O)C4CC4)cc3)n2)n[nH]1 [Tozasertib] (partner 0.1 µM) ?
Resp: 0.0738
